- MEASUREMENT_TARGET: Dual specificity protein kinase CLK4 (Homo sapiens) (UniProt Q9HAZ1)
- Sequence (Q9HAZ1 whole entry, looked up): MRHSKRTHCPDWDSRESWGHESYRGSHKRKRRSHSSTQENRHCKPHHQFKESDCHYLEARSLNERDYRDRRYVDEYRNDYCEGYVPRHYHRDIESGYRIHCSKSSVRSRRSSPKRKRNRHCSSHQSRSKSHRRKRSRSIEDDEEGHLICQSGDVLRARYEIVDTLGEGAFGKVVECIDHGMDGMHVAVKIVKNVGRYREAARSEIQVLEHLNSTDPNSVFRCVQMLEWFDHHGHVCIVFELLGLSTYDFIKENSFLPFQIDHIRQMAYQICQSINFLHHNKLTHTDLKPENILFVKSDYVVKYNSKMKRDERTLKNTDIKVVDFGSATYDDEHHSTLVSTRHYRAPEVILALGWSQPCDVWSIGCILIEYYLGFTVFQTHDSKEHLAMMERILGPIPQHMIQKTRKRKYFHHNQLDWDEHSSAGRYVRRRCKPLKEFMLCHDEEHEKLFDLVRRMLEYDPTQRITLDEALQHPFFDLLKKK
- TEST_DESCRIPTION: qHTS Assay for Inhibitors of CDC-like Kinase 4 (ADP-Glo Assay) (AID 1771); note: nearly all actives have a fitted effect of over 70% in size
- TEST_SETTINGS: recombinant CLK4, ADP-Glo luminescence; series mostly up to 80 µM
Records with an inconclusive call do not appear. Calls of active or inactive are those of the source. Calls come from the whole dose curve; as a rule, active = well fitted inhibition curve with a large enough effect; inconclusive = small, poorly fitted or top-dose-only effect; inactive = flat fitted curve, though single readings scatter.
Would you mind answering with one of these outcomes? YES = active, NO = inactive

Example entries and their recorded answers appear below.
COc1ccc(-n2c(=O)c(CCc3ccccc3)nc3cncnc32)cc1 = NO
Cn1c(=O)c(-c2ccc(F)cc2)nc2cnc(Nc3ccccc3)nc21 = NO
Cn1c(=O)c(CCc2ccccc2)nc2cnc(N3CCOCC3)nc21 = NO
COc1ccccc1CCn1c(=O)c(-c2cccc(Cl)c2)nc2cncnc21 = NO
Cc1noc(C)c1-c1cncnc1Nc1ccccc1 = NO

[ask] Which outcome was entered for the compound CN1CCN(c2ncc3nc(CCc4ccccc4)c(=O)n(C)c3n2)CC1 in this test?
[reply] NO

[ask] // param item: COc1ncc2nc(C)c(=O)n(-c3ccccc3)c2n1 ; yields the recorded call
[reply] NO

[ask] Test call for this compound, please: COc1cccc(-c2nc(NCCNC(C)=O)c3ccccc3n2)c1
[reply] YES

[ask] Just curious, what result did COc1ccccc1CNc1ccnc(-c2c(C)noc2C)n1 get here?
[reply] NO

[ask] Please indicate how the test categorized COc1ccc(Oc2ncc3ncc(=O)n(-c4ccc(OC)cc4)c3n2)cc1 .
[reply] YES

[ask] Could you check what this test reported for COc1ccc2[nH]cc(CCNc3cc(-c4ccc5c(c4)OCO5)ncn3)c2c1 ?
[reply] YES

Origin of values: PubChem BioAssay (NCATS)
